Entry source: patent US9580432B2

Collected IC50 values appear next to each entry.
Target: purified recombinant human BTK protein (Homo sapiens (Human), UniProt Q06187)
Sequence (Q06187 whole entry): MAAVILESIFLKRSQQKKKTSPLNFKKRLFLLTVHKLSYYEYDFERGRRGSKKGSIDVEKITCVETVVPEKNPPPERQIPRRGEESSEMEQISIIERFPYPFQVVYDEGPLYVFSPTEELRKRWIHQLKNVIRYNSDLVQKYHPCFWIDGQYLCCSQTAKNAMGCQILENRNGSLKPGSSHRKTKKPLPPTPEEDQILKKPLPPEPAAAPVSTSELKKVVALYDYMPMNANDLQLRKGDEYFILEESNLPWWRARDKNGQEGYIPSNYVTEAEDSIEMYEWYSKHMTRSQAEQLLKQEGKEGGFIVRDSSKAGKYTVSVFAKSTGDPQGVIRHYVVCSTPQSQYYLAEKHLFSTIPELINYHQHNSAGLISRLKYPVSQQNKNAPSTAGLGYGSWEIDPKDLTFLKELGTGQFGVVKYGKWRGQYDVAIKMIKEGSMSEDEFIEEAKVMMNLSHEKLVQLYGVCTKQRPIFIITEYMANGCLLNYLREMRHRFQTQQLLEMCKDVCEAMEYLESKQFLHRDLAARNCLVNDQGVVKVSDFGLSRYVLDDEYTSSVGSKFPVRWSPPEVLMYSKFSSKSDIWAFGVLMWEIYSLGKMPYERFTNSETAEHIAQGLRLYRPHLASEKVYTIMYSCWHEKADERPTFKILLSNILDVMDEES
Test: Measurement of BTK inhibitory activity (in vitro)
Settings: FL-PEPTIDE 2 substrate 1 μM, ATP 45 μM, 40 minutes at 25° C.
measuredAttribute: IC50 (nM)

>>> numericvalue("C=CC(=O)N1CC(Cn2nc(C(=O)Nc3nc4ccccc4o3)c3c(N)ncnc32)C1")
3.17
>>> numericvalue("C=CC(=O)N1CCC[C@@H](n2nc(C(=O)Nc3nc4c(C)cccc4o3)c3c(N)ncnc32)C1")
2.38
>>> numericvalue("CCN(CC)C/C=C/C(=O)N1CCC[C@@H](n2nc(C(=O)Nc3nc4cc(Cl)ccc4o3)c3c(N)ncnc32)C1")
0.811
>>> numericvalue("C=CC(=O)N1CCC[C@@H](n2nc(C(=O)Nc3nc4cccc(Cl)c4o3)c3c(N)ncnc32)C1")
8.09
